Data origin: ChEMBL document CHEMBL1177786

system: HT-29; experiment: Cytotoxicity against human HT-29 cells by MTT assay; type: functional, cell-based
pIC50: −log10 of the molar value. Counter-ions that a name gives are not always drawn.
value type: pIC50

{"compound": "CCN(CC)CCCNCc1cc2c(cn1)[nH]c1ccccc12", "subject of test": "HT-29", "result operator": "<", "value observed": 4.00}
{"compound": "CCN(CC)CCNCc1cc2c3ccccc3n(Cc3ccccc3)c2cn1", "subject of test": "HT-29", "result operator": "=", "value observed": 5.28}
{"compound": "CCN(CC)CCNCc1cc2c3ccccc3n(Cc3cccc(Cl)c3)c2cn1", "subject of test": "HT-29", "result operator": "=", "value observed": 4.71}
{"compound": "CCN(CC)CCCNCc1cc2c3ccccc3n(Cc3ccccc3)c2cn1", "subject of test": "HT-29", "result operator": "=", "value observed": 5.43}
{"compound": "COc1cccc2c1C(=O)c1c(O)c3c(c(O)c1C2=O)C[C@@](O)(C(=O)CO)C[C@@H]3O[C@H]1C[C@H](N)[C@H](O)[C@H](C)O1 [DOXORUBICIN HYDROCHLORIDE]", "subject of test": "HT-29", "result operator": "=", "value observed": 5.38}
{"compound": "CCN(CC)CCCNCc1cc2c3ccccc3n(Cc3cccc(Cl)c3)c2cn1", "subject of test": "HT-29", "result operator": "=", "value observed": 5.03}
{"compound": "CCN(CC)CCNCc1cc2c3ccccc3n(Cc3ccc(F)cc3)c2cn1", "subject of test": "HT-29", "result operator": "=", "value observed": 4.44}
{"compound": "CC(=O)O[C@H]1C(=O)[C@@]2(C)[C@H]([C@H](OC(=O)c3ccccc3)[C@]3(O)C[C@H](OC(=O)[C@H](O)[C@@H](NC(=O)c4ccccc4)c4ccccc4)C(C)=C1C3(C)C)[C@]1(OC(C)=O)CO[C@@H]1C[C@@H]2O", "subject of test": "HT-29", "result operator": "=", "value observed": 6.42}
{"compound": "CCN(CC)CCCCNCc1cc2c3ccccc3n(Cc3cccc(Cl)c3)c2cn1", "subject of test": "HT-29", "result operator": "=", "value observed": 4.91}
{"compound": "CCCCn1c2ccccc2c2cc(CNCCCN(CC)CC)ncc21", "subject of test": "HT-29", "result operator": "=", "value observed": 5.59}
{"compound": "CCN(CC)CCCCNCc1cc2c3ccccc3n(Cc3ccccc3)c2cn1", "subject of test": "HT-29", "result operator": "=", "value observed": 4.57}
{"compound": "CCN(CC)CCNCc1cc2c3ccccc3n(C)c2cn1", "subject of test": "HT-29", "result operator": "=", "value observed": 4.39}
{"compound": "CCCCn1c2ccccc2c2cc(CNCCCCN(CC)CC)ncc21", "subject of test": "HT-29", "result operator": "=", "value observed": 4.56}
{"compound": "CCN(CC)CCCNCc1cc2c3ccccc3n(CCCc3ccccc3)c2cn1", "subject of test": "HT-29", "result operator": "=", "value observed": 5.59}
{"compound": "CCN(CC)CCNCc1cc2c3ccccc3n(CCCc3ccccc3)c2cn1", "subject of test": "HT-29", "result operator": "=", "value observed": 5.38}
{"compound": "CCN(CC)CCCNCc1cc2c3ccccc3n(C)c2cn1", "subject of test": "HT-29", "result operator": "=", "value observed": 4.45}
{"compound": "CCN(CC)CCCCNCc1cc2c3ccccc3n(Cc3ccc(F)cc3)c2cn1", "subject of test": "HT-29", "result operator": "=", "value observed": 5.00}
{"compound": "CCN(CC)CCCNCc1cc2c3ccccc3n(Cc3ccc(F)cc3)c2cn1", "subject of test": "HT-29", "result operator": "=", "value observed": 4.99}
{"compound": "CCCCn1c2ccccc2c2cc(CNCCN(CC)CC)ncc21", "subject of test": "HT-29", "result operator": "=", "value observed": 5.11}
{"compound": "CCN(CC)CCCCNCc1cc2c3ccccc3n(CCCc3ccccc3)c2cn1", "subject of test": "HT-29", "result operator": "=", "value observed": 5.19}
{"compound": "CCN(CC)CCCCNCc1cc2c3ccccc3n(C)c2cn1", "subject of test": "HT-29", "result operator": "=", "value observed": 4.48}
